All values here come from patent US10065990B2.

- MEASURED TARGET: HDAC11 (Homo sapiens, UniProt Q96DB2)
- Sequence (Q96DB2 1-347): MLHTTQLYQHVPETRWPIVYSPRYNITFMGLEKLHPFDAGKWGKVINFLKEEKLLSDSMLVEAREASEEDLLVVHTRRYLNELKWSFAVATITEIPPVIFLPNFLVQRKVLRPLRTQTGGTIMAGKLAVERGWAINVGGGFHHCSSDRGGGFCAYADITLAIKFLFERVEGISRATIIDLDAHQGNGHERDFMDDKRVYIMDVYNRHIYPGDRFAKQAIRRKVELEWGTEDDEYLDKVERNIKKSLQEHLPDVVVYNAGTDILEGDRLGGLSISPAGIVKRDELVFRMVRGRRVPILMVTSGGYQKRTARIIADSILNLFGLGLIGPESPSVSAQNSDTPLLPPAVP
- PROCEDURE TEXT: HDAC biochemical activity measurement (fluorescent substrate deacetylation);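 note: HDAC11 enzyme acting on an acetyl-lysine fluorogenic substrate, then a developer frees the fluorophore, read at excitation 360 nm and emission 460 nm, IC50 over a compound dilution series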
MEASURED PROPERTY: pIC50
Please treat pIC50 as minus the base-10 logarithm of the molar concentration.

C/C=C1\NC(=O)c2nc(ccc2SCCC)CNC(=O)C[C@@H](/C=C/CCSC(=O)CCCCCCC)OC(=O)[C@H](CC)NC1=O [Compound 174]: 7.01
C/C=C1\NC(=O)c2cc(F)cc(n2)CNC(=O)C[C@@H](/C=C/CCSC(C)=O)OC(=O)[C@H](Cc2cccc3ccccc23)NC1=O [Example 79]: 7.03
C=C1NC(=O)c2cc(SC)cc(n2)CNC(=O)C[C@@H](/C=C/CCSC(C)=O)OC(=O)[C@H](C(C)C)NC1=O [Compound 205]: 7.11
C/C=C1\NC(=O)c2nc(ccc2F)CNC(=O)C[C@@H](/C=C/CCSC(C)=O)OC(=O)[C@H](C)NC1=O [Example 63]: 7.04
C/C=C1\NC(=O)c2cc(F)cc(n2)CCNC(=O)C[C@@H](/C=C/CCSC(C)=O)OC(=O)[C@H](C(C)C)NC1=O [Compound 104]: 7.08

Consider the record given below.
Value of measured pIC50 for the entry C/C=C1\NC(=O)c2cc(F)cc(n2)CNC(=O)C[C@@H](/C=C/CCSC(C)=O)OC(=O)[C@H](Cc2ccc(O)cc2)NC1=O [Example 82] : 7.04
